experimental-system: human FGFR2b on KATO III cells (human, UniProt P21802)
Sequence (P21802 22-377): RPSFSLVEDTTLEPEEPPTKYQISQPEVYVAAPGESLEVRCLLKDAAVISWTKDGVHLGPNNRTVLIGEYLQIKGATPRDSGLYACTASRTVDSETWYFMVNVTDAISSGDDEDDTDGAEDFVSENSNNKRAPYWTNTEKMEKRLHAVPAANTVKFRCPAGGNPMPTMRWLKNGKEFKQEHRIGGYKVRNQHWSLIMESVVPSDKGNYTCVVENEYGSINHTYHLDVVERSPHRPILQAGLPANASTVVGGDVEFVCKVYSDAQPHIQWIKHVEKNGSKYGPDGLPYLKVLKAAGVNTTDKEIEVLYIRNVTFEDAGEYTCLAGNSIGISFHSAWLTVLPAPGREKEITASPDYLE
experiment-summary: FACS
readout-kind: EC50 (µg/mL)
Supply the numeric figure in µg/mL, leaving out any unit text.

[[record]]
binder = "3C9 (antibody, V domains shown) VH: EIQLQQSGAELVKPGASVKMSCKASGYIFRYYNMHWVKRTPGQGLEWIGLIYPDNGDTSYNQKFKGKATLTADTSSSTAYMQLSSLTSEDSAVYYCARGGLDYWGQGTTLTVSS VL: DIQMIQSPASLSASVGETVTITCGASENIYGALNWYQRKQGKSPQLLIYGATNLADGMSSRFSGSGSGRQYSLKISSLHPDDVATYYCQNVLSTPYTFGGGTKLEIK"
readout_kind = "EC50"
observed_value = 0.253

[[record]]
binder = "3B7 (antibody, V domains shown) VH: EVQLQQSGAELVKPGASVKMSCKASGYTFRYYNMHWVKRTPGQGLEWIGLIYPDNGDTSYNQKFKGKATLTADTSSSTAYMQLSSLTSEDSAVYYCARGGFDYWGQGTTLTVSS VL: DIQMTQSPASLSASVGETVTITCGASENIYGALNWYQRKQGKSPQLLIYGATNLADGMSSRFSGSGSGRQYSLKISSLHPDDVATYYCQNVLSTPYTFGGGTKLELK"
readout_kind = "EC50"
observed_value = 0.117


Sure, the documented EC50 for 3H6 (antibody, V domains shown) VH: QVQLQQSGAELVKPGASVKMSCKASGYTFSFYNIHWVRQTPGQGLEWIGLIYPDNGDTSYNQKFKAKATLTADKSSSTAYMQLSSLTSEDSAVYYCARGGFDYWGQGTTLTVSS VL: DIQMTQSPASLSASVGETVTITCRASENIYSYLAWYQQKQGKSPQLLVYNAKTLAEGVPSRFSGSGSGTQFSLKINSLQPEDFGSYYCQHHYGTPYTFGGGTKLEMK is 0.226
